A compilation of Ki values for Metabotropic glutamate receptor 5 (Rattus norvegicus) from the published literature.

| Smiles Data | Result |
| --- | --- |
| O=S(=O)(c1cccc(F)c1)c1cnc2cc(Cl)ccc2c1-c1cccc(F)c1 | < 200 nM |
| O=C(c1ccc(F)c(C#Cc2ccccn2)c1)N1CCc2ccc(Cl)cc2C1 | 2 nM |
| COc1ccc2ncc(S(=O)(=O)c3ccccc3)c(N3CCN(C)CC3)c2c1 | > 500 nM |
| CCOC(=O)C1CCN(c2c(S(=O)(=O)c3ccc(C)cc3)cnc3ccccc23)CC1 | > 500 nM |
| O=S(=O)(c1ccccc1)c1cnc2ccccc2c1N1CCN(c2cccc(Cl)c2)CC1 | > 500 nM |

Ask: Query Ki on Metabotropic glutamate receptor 5 (Rattus norvegicus) for Nc1ccc2c(-c3cccc(F)c3)c(S(=O)(=O)c3ccc(F)c(F)c3)cnc2c1
Reply: < 200 nM

Ask: Query Ki on Metabotropic glutamate receptor 5 (Rattus norvegicus) for O=S(=O)(c1cccc(F)c1)c1cnc2c(F)cccc2c1-c1cccc(F)c1
Reply: < 200 nM

Ask: Query Ki on Metabotropic glutamate receptor 5 (Rattus norvegicus) for COc1ccc(C(=O)N2CCc3c(F)ccc(F)c3C2)cc1C#Cc1ccccn1
Reply: 2 nM

---

A compilation of Ki values for UniProt P31424 from the published literature.

Look over these answered cases.
| Compound | Ki |
| --- | --- |
| O=S(=O)(c1cccc(F)c1)c1cnc2cc(F)ccc2c1-c1cccc(F)c1 | < 200 nM |
| N#Cc1cccc(S(=O)(=O)c2cnc3cc(Cl)ccc3c2-c2ccccc2F)c1 | < 200 nM |
| Cc1ccc(C(=O)N2CCc3ccc(Cl)cc3C2)cc1C#Cc1ccccn1 | 0.3 nM |

Ask: Query Ki on UniProt P31424 for Cc1ccc(S(=O)(=O)c2cnc3ccccc3c2NCc2ccccc2)cc1
Reply: < 200 nM

Ask: Query Ki on UniProt P31424 for COc1ccc(C(=O)N2Cc3ccccc3C(CNc3ccccc3)C2)cc1C#Cc1ccccn1 (centres unmarked)
Reply: 68 nM

Ask: Query Ki on UniProt P31424 for CCCCS(=O)(=O)c1sc2ncccc2c1-c1ccc(Cl)cc1
Reply: 500 to 1500 nM

Ask: Query Ki on UniProt P31424 for CC1CCN(c2c(S(=O)(=O)c3ccc(F)c(Cl)c3)cnc3ccc(F)cc23)CC1
Reply: 200 to 500 nM

Ask: Query Ki on UniProt P31424 for COc1ccc2ncc(S(=O)(=O)c3cc(Cl)cc(Cl)c3)c(N3CCC(C)CC3)c2c1
Reply: < 200 nM

---

A compilation of pKi values for Metabotropic glutamate receptor 5 (Rattus norvegicus, UniProt P31424) from the published literature.
pKi: −log10 of the molar value.

| Smiles Data | pKi |
| --- | --- |
| N#Cc1cccc(S(=O)(=O)c2cnc3cc(F)ccc3c2-c2cc(F)cc(F)c2)c1 | > 6.70 |
| O=S(=O)(c1ccc(Cl)cc1)c1sc2ncccc2c1-n1cncn1 | 5.82 to 6.30 |

Ask: Query pKi on Metabotropic glutamate receptor 5 (Rattus norvegicus, UniProt P31424) for COc1ccc(C(=O)N2Cc3ccncc3C2)cc1C#Cc1ccccn1
Reply: 7.51

---

A compilation of pKi values for Metabotropic glutamate receptor 5 (Rattus norvegicus) from the published literature.
pKi: −log10 of the molar value.

Look over these answered cases.
| Smiles Data | Reported Metric | Result |
| --- | --- | --- |
| O=C(CCc1ccc(F)cc1)c1sc2ncccc2c1-c1ccc(F)cc1 | pKi | > 6.30 |
| N#Cc1cccc(S(=O)(=O)c2sc3ncccc3c2-c2cccc(F)c2)c1 | pKi | > 6.30 |
| O=C(Nc1c(S(=O)(=O)c2ccc(Cl)cc2)sc2ncccc12)N1CCCCC1 | pKi | < 5.82 |
| COc1ccc(S(=O)(=O)c2cnc3cc(F)ccc3c2N2CCC(C)CC2)cc1 | pKi | > 6.70 |
| O=S(=O)(c1ccc(Cl)cc1)c1cnc2c(Cl)ccc(Cl)c2c1N1CCOCC1 | pKi | 6.30 to 6.70 |
| O=C(c1ccc(C(F)(F)F)c(C#Cc2ccccn2)c1)N1CCc2cccnc2C1 | pKi | 7.47 |
| CC1CCN(c2c(S(=O)(=O)c3ccc(C#N)cc3)cnc3cc(Cl)ccc23)CC1 | pKi | 6.30 to 6.70 |

# input for lookup
Ask: Query pKi on Metabotropic glutamate receptor 5 (Rattus norvegicus) for O=S(=O)(c1ccc(Cl)cc1)c1sc2nc(Cl)ccc2c1-c1ccc(Cl)cc1
Reply: > 6.30
